- Assay summary: Evaluation of reactivity of aqueous amine solutions with carbon dioxide
- Assay type: physicochemical
- Experimental conditions: difference between absorbed amount at 30° C. and at 90° C.
- Description: Amine compounds were mixed with water to prepare aqueous amine solutions. […] The reactions were carried out at temperatures of 30° C. and 90° C., and the reacted amount was calculated from element ratios of C and N before and after the reaction as measured with the Model TOC-VCP and Model TNM-1 Total Organic Carbon Analyzers (Shimadzu Corp.). […]
Could you label it 1 (yes) if measured CO2 desorption performance (moles CO2/moles N) is 0.3 moles CO2/moles N or higher, and 0 (no) otherwise?

These solved cases illustrate the format of a correct answer.
>>> class_name("CCNCCO [EAE, 2-ethylaminoethanol]")
"1 (yes)"
>>> class_name("CC(O)CNCC(O)CNCC(C)O (stereo not drawn) [BHPP, 1,3-bis(2-hydroxypropylamino)propan-2-ol]")
"0 (no)"
>>> class_name("NCC(O)CN [DAP, 1,3-diaminopropan-2-ol]")
"0 (no)"

As a next step, examine the compound that follows.
Given the entry NCCO [MEA, Monoethanolamine] , answer whether its CO2 desorption performance (moles CO2/moles N) meets or surpasses 0.3 moles CO2/moles N. 0 (no)

----------
- Assay summary: Evaluation of reactivity of aqueous amine solutions with carbon dioxide
- Assay type: physicochemical
- Experimental conditions: 90° C., aqueous amine 1.81 mol/L (monoamine) or 0.91 mol/L (diamine), CO2 300 mL/min 15 minutes
Measured parameter: Absorbed amount at 90° C. (moles CO2/moles N)
Kindly provide the numeric value in moles CO2/moles N only, without the unit symbol.

>>> observed_measurement("CCNCCO [EAE, 2-ethylaminoethanol]")
0.279
>>> observed_measurement("NCC(O)CN [DAP, 1,3-diaminopropan-2-ol]")
0.409
>>> observed_measurement("OCCNCC(O)CNCCO [BHEP, 1,3-bis(2-hydroxyethylamino)propan-2-ol]")
0.214

Fill in the blank: the reported Absorbed amount at 90° C. (moles CO2/moles N) of CC(O)CNCC(O)CNCCO (stereo not drawn) [HEHPP] is ____. 0.213

What do you have for CC(O)CNCC(O)CNCC(C)O (stereo not drawn) [BHPP, 1,3-bis(2-hydroxypropylamino)propan-2-ol] ? 0.213

What do you have for NCCO [MEA, Monoethanolamine] ? 0.400

----------
Heat of reaction reference
- Assay summary: Evaluation of heat of reaction of aqueous amine solutions (C-80 reaction calorimeter, FIG. 9C)
- Assay type: physicochemical
- Experimental conditions: 30° C., per 1 mole of reacted CO2 at reacted amount 0.10 mol CO2/mol N
Kindly provide the numeric value in kcal/mol only, without the unit symbol.

>>> observed_measurement("OCCNCC(O)CNCCO [BHEP, 1,3-bis(2-hydroxyethylamino)propan-2-ol]")
16.1
>>> observed_measurement("CCNCCO")
20.8
>>> observed_measurement("NCCO")
21.6
>>> observed_measurement("CC(O)CNCC(O)CNCC(C)O (stereo not drawn) [BHPP, 1,3-bis(2-hydroxypropylamino)propan-2-ol]")
16.3
>>> observed_measurement("NCC(O)CN")
20.9

Then there is this molecule:
Fill in the blank: the reported Heat of reaction of CC(O)CNCC(O)CNCCO (stereo not drawn) is ____. 16.1

----------
Absorbed amount at 30° C. (moles CO2/moles N) reference
- Assay summary: Evaluation of reactivity of aqueous amine solutions with carbon dioxide
- Type: physicochemical
- Experimental conditions: 30° C., aqueous amine 1.81 mol/L (monoamine) or 0.91 mol/L (diamine), CO2 300 mL/min 15 minutes
Kindly provide the numeric value in moles CO2/moles N only, without the unit symbol.

>>> observed_measurement("CC(O)CNCC(O)CNCC(C)O (stereo not drawn) [BHPP, 1,3-bis(2-hydroxypropylamino)propan-2-ol]")
0.498
>>> observed_measurement("CCNCCO [EAE, 2-ethylaminoethanol]")
0.631
>>> observed_measurement("NCCO [MEA, Monoethanolamine]")
0.614
>>> observed_measurement("NCC(O)CN [DAP, 1,3-diaminopropan-2-ol]")
0.601
>>> observed_measurement("OCCNCC(O)CNCCO [BHEP, 1,3-bis(2-hydroxyethylamino)propan-2-ol]")
0.516

Then there is this compound:
Fill in the blank: the reported Absorbed amount at 30° C. (moles CO2/moles N) of CC(O)CNCC(O)CNCCO (stereo not drawn) [HEHPP] is ____. 0.506

The measurements presented in this section are drawn from patent US9399192B2.
